Biological target: Gal4-RORγ-LBD (Homo sapiens, UniProt P51449)
Sequence (P51449 269-508 limits assumed): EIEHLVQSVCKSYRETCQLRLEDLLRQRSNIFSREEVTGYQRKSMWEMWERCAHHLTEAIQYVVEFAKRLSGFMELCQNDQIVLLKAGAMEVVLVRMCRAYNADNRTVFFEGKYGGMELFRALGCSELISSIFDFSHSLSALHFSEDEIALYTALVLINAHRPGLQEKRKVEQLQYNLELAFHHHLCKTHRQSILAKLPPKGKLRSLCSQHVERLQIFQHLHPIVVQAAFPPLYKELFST
Assay: Gal4-RORγ Luciferase Reporter Assay in HEK-293T Cells
Details: HEK-293 cells, 2 μM ursolic acid
reported_endpoint: EC50

input: For C[C@H]1CN(S(=O)(=O)c2cccc(C(F)(F)F)c2)c2cc(COc3c(F)cccc3Cl)ccc2O1 [Compound 1] , what is its reported EC50?
output: 500 to 5000 nM

====

Target: RORγ-LBD (Homo sapiens, UniProt P51449)
Construct: HIS-tagged RORγ-LBD protein was expressed in SF9 cells using a baculovirus expression system; lysate used
Assay: RORγ-Ligand Binding Domain (LBD) TR-FRET Assay
Conditions: in presence of 2 μM RORγ antagonist ursolic acid
pEC50: −log10 of the molar value.
reported_endpoint: pEC50

input: Reported pEC50 for C[C@H]1CN(S(=O)(=O)c2cccc(C(F)(F)F)c2)c2cc(COc3c(F)cccc3Cl)ccc2O1 [Compound 1] : what is it?
output: > 6.30
